Assay Overview: Stability evaluation of peptide P1 cysteine conjugates in the presence of base, acid or an external thiol nucleophile (LC-MS)
Type: physicochemical
Assay Conditions: 0.1 M Tris buffer with 5 mM glutathione; 1 mM peptide, 5 mM GSH, 0.1M Tris, pH 7.4; 2 d at rt, then 4 d at 37° C.; read-out: % remaining peptide, GSH
Peptide text beside a SMILES is read from it. * marks the point of attachment. Succinimide(1-Et,3-yl) = CCN1C(=O)CC(*)C1=O; Bn = c1ccc(C*)cc1; X1 = Cc1ccc(*)cc1
remaining at 144 h, 1 mM values by entry
Quick note: give the figure in %, leave out the unit.

Previously resolved entries follow.
>  <Compound>
CCN1C(=O)CC(SC[C@H](NC(=O)CNC(=O)[C@H](CC(C)C)NC(=O)[C@H](Cc2ccc(O)cc2)NC(=O)[C@H](Cc2ccccc2)NC(=O)[C@H](CC(N)=O)NC(=O)[C@H](CO)NC(=O)[C@@H](N)CCCNC(=N)N)C(=O)N[C@@H](C)C(=O)NCC(=O)N[C@@H](CC(C)C)C(=O)N[C@@H](C)C(=O)N[C@@H](Cc2c[nH]cn2)C(=O)N[C@@H](CC(=O)O)C(=O)N[C@@H](CCCCN)C(=O)N[C@@H](C)C(=O)N[C@H](C(N)=O)[C@@H](C)O)C1=O (stereo partly drawn) (H-RSNFYLGC(Succinimide(1-Et,3-yl))AGLAHDKAT-NH2)

>  <Readout Units>
%

>  <Result Number>
37

$$$$
>  <Compound>
Cc1ccc(SC[C@H](NC(=O)CNC(=O)[C@H](CC(C)C)NC(=O)[C@H](Cc2ccc(O)cc2)NC(=O)[C@H](Cc2ccccc2)NC(=O)[C@H](CC(N)=O)NC(=O)[C@H](CO)NC(=O)[C@@H](N)CCCNC(=N)N)C(=O)N[C@@H](C)C(=O)NCC(=O)N[C@@H](CC(C)C)C(=O)N[C@@H](C)C(=O)N[C@@H](Cc2c[nH]cn2)C(=O)N[C@@H](CC(=O)O)C(=O)N[C@@H](CCCCN)C(=O)N[C@@H](C)C(=O)N[C@H](C(N)=O)[C@@H](C)O)cc1 (H-RSNFYLGC(X1)AGLAHDKAT-NH2)

>  <Readout Units>
%

>  <Result Number>
90

$$$$

For the compound shown here, CC(C)C[C@H](NC(=O)CNC(=O)[C@H](C)NC(=O)[C@H](CSCc1ccccc1)NC(=O)CNC(=O)[C@H](CC(C)C)NC(=O)[C@H](Cc1ccc(O)cc1)NC(=O)[C@H](Cc1ccccc1)NC(=O)[C@H](CC(N)=O)NC(=O)[C@H](CO)NC(=O)[C@@H](N)CCCNC(=N)N)C(=O)N[C@@H](C)C(=O)N[C@@H](Cc1c[nH]cn1)C(=O)N[C@@H](CC(=O)O)C(=O)N[C@@H](CCCCN)C(=O)N[C@@H](C)C(=O)N[C@H](C(N)=O)[C@@H](C)O (H-RSNFYLGC(Bn)AGLAHDKAT-NH2) , give the reported remaining at 144 h, 1 mM.
88

The measurements presented in this section are drawn from patent US20190055280A1.
